Assignment: determine reported Kd for the given binders.
Biological target: TGF-beta1 (hTGF-beta1) (Homo sapiens, UniProt P01137 P01137:279-390)
Sequence (P01137 279-390, one chain of several): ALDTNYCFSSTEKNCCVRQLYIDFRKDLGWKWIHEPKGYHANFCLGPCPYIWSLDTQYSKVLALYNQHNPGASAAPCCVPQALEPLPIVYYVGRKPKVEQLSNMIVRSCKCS
Assay: filter; monophasic
Details: tags: R&D Systems; biotinylated form (NFTG0) used for BIAcore; chain copies: 2
Answer format reminder: number followed by unit.

Illustrative cases are given below, each with its answer.
# BINDER, MEASURED
measured = [
    ("40-40 (ssRNA, 2'-F C and U) RNA: GGGAGGACGAUGCGGCCCAAGGUUACGCCGUCGGACCCUACUGCCAACUUCCUCCCCAGACGACUCGCCCGA", "18 nM"),
    ("30-43 (ssRNA, 2'-F C and U) RNA: GGGAGGACGAUGCGGUGUCUUUAGCCUAGGUGAUUCCUUCUGCCGCAGACGACUCGCCCGA", "50.5 nM"),
    ("40-20 (ssRNA, 2'-F C and U) RNA: GGGAGGACGAUGCGGUACAAGGUUACGCCGUCGGACCCUGCUGCCAACAUCCUCCCCAGACGACUCGCCCGA", "11.2 nM"),
    ("30-08 (ssRNA, 2'-F C and U) RNA: GGGAGGACGAUGCGGCGGAAUUUUUGUUGAGCCGUAUGCCGCCAGACGACUCGCCCGA", "10.2 nM"),
    ("40-13 (ssRNA, 2'-F C and U) RNA: GGGAGGACGAUGCGGAGCAAGGUUACGAGGUCGGACCCUGCUGCCAACAUCCUCCCCAGACGACUCGCCCGA", "15.4 nM"),
]

Below are 4 binders. Give each one its Kd.
1. 30-34 (ssRNA, 2'-F C and U) RNA: GGGAGGACGAUGCGGUGUCUAUAGCCUUGAUUACAUCAUCUGCCUCAGACGACUCGCCCGA
2. 40-33 (ssRNA, 2'-F C and U) RNA: GGGAGGACGAUGCGGAGCAAGGUUACGCCGUCGGACCCUGCUGCCAACAUCCUCCCCAGACGACUCGCCCGA
3. 40-36 (ssRNA, 2'-F C and U) RNA: GGGAGGACGAUGCGGGUCAAGGUUACGCCGUCGGACCCUACUGCCCCCAGACGACUCGCCCGA
4. 30-15 (ssRNA, 2'-F C and U) RNA: GGGAGGACGAUGCGGUUGACCGUUAAGACGGCAUGAUGUGGUCCGCAGACGACUCGCCCGA

Reply |
1: 9.5 nM; 2: 26.6 nM; 3: 41.7 nM; 4: 55.3 nM

Just for reference, patent US6124449 is where these values come from.
